Test system: HOP-18 NSCLC
test.description: NCI tumour cell line growth inhibition, 48 h
property: TGI

**Q:** Any idea what TGI was measured for O=C(NC(Cc1ccc(Br)cc1)C(=O)O)c1ccc(I)cc1 (configuration not stated) ?
**A:** > 100 µM

**Q:** Any idea what TGI was measured for O=C1Cc2nc(CO)c(CO)c(CO)c2CO1 ?
**A:** > 100 µM

**Q:** Any idea what TGI was measured for COc1cccc(/C=C/C(=O)c2sc(C(N)=S)nc2C)c1O ?
**A:** > 100 µM

**Q:** Any idea what TGI was measured for CCN(CC)CC(C)C(=O)/C=C/c1ccc(C)cc1 (configuration not stated) ?
**A:** 22.3 µM

**Q:** Any idea what TGI was measured for COc1ccc(C(=O)c2c3cc(OC)c(OC)c(OC)c3cc[n+]2C)cc1 ?
**A:** 80.6 µM

**Q:** Any idea what TGI was measured for CN(C)CCC(CCN(C)C)=NO ?
**A:** > 100 µM

**Q:** Any idea what TGI was measured for COc1cc(CC2c3cc(OC)c(OC)cc3CCN2C)ccc1O (configuration not stated) ?
**A:** > 100 µM

**Q:** Any idea what TGI was measured for COc1ccc(N2C(=O)C3c4[nH]c5ccccc5c4C4CC(C)(C)CC(C)(C)C4C3C2=O)cc1 (configuration not stated) ?
**A:** 36.5 µM

**Q:** Any idea what TGI was measured for CSc1nc2nn(Cc3ccccc3)cc2c(=O)[nH]1 ?
**A:** > 100 µM

**Q:** Any idea what TGI was measured for Cc1[nH]c(=O)[nH]c(=O)c1/C=C/C(=O)NC(CO)CS(=O)CS(C)=O (configuration not stated) ?
**A:** 551 µM

**Q:** Any idea what TGI was measured for C[C@@H](NS(=O)(=O)c1ccc(NC(=O)c2ccccc2)cc1)C(=O)O ?
**A:** > 100 µM

**Q:** Any idea what TGI was measured for c1cc2nnsc2s1 ?
**A:** > 100 µM

**Q:** Any idea what TGI was measured for C=CC(=O)NC(N)=NC#N ?
**A:** 283 µM

**Q:** Any idea what TGI was measured for CC(=O)O[C@H]1CCN2C(=O)C=CC(OCc3ccccc3)C12 (some centres not stated) ?
**A:** > 100 µM

**Q:** Any idea what TGI was measured for Cc1ccc(/C=C(\NC(=O)c2ccccc2)c2nc3ccccc3[nH]2)cc1 ?
**A:** > 100 µM

**Q:** Any idea what TGI was measured for CN(C)CCNC(=O)c1cc(Cl)cc2cc3ccccc3nc12 ?
**A:** 21.3 µM

**Q:** Any idea what TGI was measured for COC(=O)c1ncc2c(=O)[nH]c3ccccc3c2c1C(=O)OC ?
**A:** > 100 µM

**Q:** Any idea what TGI was measured for Cn1c2c(c3ccccc31)CCN(CCCCN1CCN(c3ccccc3)CC1)C2=O ?
**A:** > 31.6 µM

**Q:** Any idea what TGI was measured for CC1C(=O)CC(c2cccs2)N(N=O)C1c1cccs1 (configuration not stated) ?
**A:** > 100 µM

**Q:** Any idea what TGI was measured for CC(=O)OCC1OC(OC2C(COC(C)=O)OC(Sc3ccccc3C)C(OC(C)=O)C2OC(C)=O)C(OC(C)=O)C(OC(C)=O)C1OC(C)=O (configuration not stated) ?
**A:** > 100 µM

**Q:** Any idea what TGI was measured for CCOC(=O)C1=C(C)NC2=C(C(=O)N(c3ccccc3)C2c2ccccc2)C1c1ccccc1 (configuration not stated) ?
**A:** 37.7 µM

**Q:** Any idea what TGI was measured for O=C(CCc1ccccc1)NS(=O)(=O)c1ccccc1 ?
**A:** > 100 µM
